Measured IC50-fold change relative to peptide 1 accompanies every entry in the list below.
- Study Target: C3 purified from fresh human plasma (human, UniProt P01024 23-1663)
- Sequence (P01024 23-1663): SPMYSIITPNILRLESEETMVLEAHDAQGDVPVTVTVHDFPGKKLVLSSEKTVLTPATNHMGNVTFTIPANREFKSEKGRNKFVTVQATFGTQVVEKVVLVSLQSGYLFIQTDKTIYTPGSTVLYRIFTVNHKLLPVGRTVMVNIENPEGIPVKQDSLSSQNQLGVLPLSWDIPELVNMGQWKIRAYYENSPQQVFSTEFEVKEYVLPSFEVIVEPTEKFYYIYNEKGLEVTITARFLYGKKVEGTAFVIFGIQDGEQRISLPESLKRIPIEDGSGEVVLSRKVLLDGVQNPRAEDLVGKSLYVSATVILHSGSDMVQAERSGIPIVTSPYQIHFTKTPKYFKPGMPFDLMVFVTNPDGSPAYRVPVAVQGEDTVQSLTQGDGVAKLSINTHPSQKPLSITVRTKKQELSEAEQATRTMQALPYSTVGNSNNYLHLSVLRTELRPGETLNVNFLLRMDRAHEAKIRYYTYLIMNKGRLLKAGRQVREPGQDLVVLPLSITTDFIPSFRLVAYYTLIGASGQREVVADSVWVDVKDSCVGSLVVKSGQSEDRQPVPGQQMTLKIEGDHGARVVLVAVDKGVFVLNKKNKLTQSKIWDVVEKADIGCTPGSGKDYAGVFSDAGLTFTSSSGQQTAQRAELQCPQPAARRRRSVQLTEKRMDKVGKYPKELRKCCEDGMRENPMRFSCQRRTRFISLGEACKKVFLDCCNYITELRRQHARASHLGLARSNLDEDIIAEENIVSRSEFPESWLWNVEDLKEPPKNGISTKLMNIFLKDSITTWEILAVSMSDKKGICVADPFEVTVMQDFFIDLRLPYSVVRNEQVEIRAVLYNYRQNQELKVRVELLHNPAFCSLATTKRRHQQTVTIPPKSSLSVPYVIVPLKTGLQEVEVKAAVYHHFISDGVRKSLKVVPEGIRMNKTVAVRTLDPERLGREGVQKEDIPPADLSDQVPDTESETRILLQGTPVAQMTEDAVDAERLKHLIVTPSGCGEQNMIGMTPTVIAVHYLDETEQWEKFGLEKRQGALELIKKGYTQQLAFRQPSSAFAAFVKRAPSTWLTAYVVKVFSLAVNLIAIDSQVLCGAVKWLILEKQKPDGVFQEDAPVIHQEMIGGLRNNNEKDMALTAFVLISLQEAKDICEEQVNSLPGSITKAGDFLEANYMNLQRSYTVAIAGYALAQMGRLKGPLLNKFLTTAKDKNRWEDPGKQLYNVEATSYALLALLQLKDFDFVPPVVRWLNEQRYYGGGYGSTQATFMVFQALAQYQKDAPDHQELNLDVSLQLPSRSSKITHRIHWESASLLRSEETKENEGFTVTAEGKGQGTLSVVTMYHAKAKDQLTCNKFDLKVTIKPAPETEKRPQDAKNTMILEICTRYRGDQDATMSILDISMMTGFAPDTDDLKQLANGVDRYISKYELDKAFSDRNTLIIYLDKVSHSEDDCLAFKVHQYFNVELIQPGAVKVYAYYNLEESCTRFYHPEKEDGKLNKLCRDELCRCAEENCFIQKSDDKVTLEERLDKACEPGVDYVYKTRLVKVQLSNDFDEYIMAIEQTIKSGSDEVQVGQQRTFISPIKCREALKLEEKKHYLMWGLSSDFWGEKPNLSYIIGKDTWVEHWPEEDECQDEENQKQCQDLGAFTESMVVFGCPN
- Protocol: cell-based or functional assay
Bridge positions count the residues as written; N and C are the ends. Square brackets hold non-standard residues; d marks the D form. NMeH = CN[C@@H](Cc1c[nH]cn1)C(=O)O; NMeR = CN[C@@H](CCCNC(=N)N)C(=O)O
Record the value in fold, omitting the unit from your answer.

- Binder: "Ac-ICVYQDWGAH[NMeR]CT-NH2 (disulfide 2-12; SMILES CC[C@H](C)[C@H](NC(C)=O)C(=O)N[C@H]1CSSC[C@@H](C(=O)N[C@H](C(N)=O)[C@@H](C)O)NC(=O)[C@H](CCCNC(=N)N)N(C)C(=O)[C@H](Cc2c[nH]cn2)NC(=O)[C@H](C)NC(=O)CNC(=O)[C@H](Cc2c[nH]c3ccccc23)NC(=O)[C@H](CC(=O)O)NC(=O)[C@H](CCC(N)=O)NC(=O)[C@H](Cc2ccc(O)cc2)NC(=O)[C@H](C(C)C)NC1=O) [Ac-I[CVYQDWGAH(NMe)RC]T-NH2]"
  IC50-fold change relative to peptide 1, fold: 0.08

Moving on to the next binder.
Exercise: Reported IC50-fold change relative to peptide 1 for Ac-ICVYQDWGA[NMeH]RCT-NH2 (disulfide 2-12; SMILES CC[C@H](C)[C@H](NC(C)=O)C(=O)N[C@H]1CSSC[C@@H](C(=O)N[C@H](C(N)=O)[C@@H](C)O)NC(=O)[C@H](CCCNC(=N)N)NC(=O)[C@H](Cc2c[nH]cn2)N(C)C(=O)[C@H](C)NC(=O)CNC(=O)[C@H](Cc2c[nH]c3ccccc23)NC(=O)[C@H](CC(=O)O)NC(=O)[C@H](CCC(N)=O)NC(=O)[C@H](Cc2ccc(O)cc2)NC(=O)[C@H](C(C)C)NC1=O) [Ac-I[CVYQDWGA(NMe)HRC]T-NH2] : what is it?
Key: 0.03
